Origin of measurements: patent US20170342144A1

Each entry below carries its recorded kd mutant/kd wt.
Target: T1, human TGFβ3 (human, UniProt P10600 301-412)
T1 sequence: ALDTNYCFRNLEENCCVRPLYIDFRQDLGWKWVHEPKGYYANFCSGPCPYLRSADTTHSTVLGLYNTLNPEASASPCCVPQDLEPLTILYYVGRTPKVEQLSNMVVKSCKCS
Assay: Biacore off-rate vs wt GC1008
Give the value as a plain number.

binder	numericValue
N32K (antibody, V domains shown, GC1008 IgG4 variant) VH: QVQLVQSGAEVKKPGSSVKVSCKASGYTFSSKVISWVRQAPGQGLEWMGGVIPIVDIANYAQRFKGRVTITADESTSTTYMELSSLRSEDTAVYYCASTLGLVLDAMDYWGQGTLVTVSS VL: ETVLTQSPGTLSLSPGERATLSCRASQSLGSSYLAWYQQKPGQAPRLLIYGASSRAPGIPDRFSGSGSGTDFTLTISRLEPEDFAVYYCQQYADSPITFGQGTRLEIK	1.8

kd mutant/kd wt measured on E74L (antibody, V domains shown, GC1008 IgG4 variant) VH: QVQLVQSGAEVKKPGSSVKVSCKASGYTFSSNVISWVRQAPGQGLEWMGGVIPIVDIANYAQRFKGRVTITADLSTSTTYMELSSLRSEDTAVYYCASTLGLVLDAMDYWGQGTLVTVSS VL: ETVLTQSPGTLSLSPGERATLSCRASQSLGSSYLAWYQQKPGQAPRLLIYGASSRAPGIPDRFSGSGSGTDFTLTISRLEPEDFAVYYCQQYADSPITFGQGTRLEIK = 0.1

Quick note, kd mutant/kd wt for N32E (antibody, V domains shown, GC1008 IgG4 variant) VH: QVQLVQSGAEVKKPGSSVKVSCKASGYTFSSEVISWVRQAPGQGLEWMGGVIPIVDIANYAQRFKGRVTITADESTSTTYMELSSLRSEDTAVYYCASTLGLVLDAMDYWGQGTLVTVSS VL: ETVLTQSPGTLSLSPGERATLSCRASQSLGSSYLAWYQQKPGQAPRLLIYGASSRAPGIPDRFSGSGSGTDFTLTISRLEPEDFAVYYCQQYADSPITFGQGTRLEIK landed at 0.7
